test system: MDR1; assay: MDCK-MDR1 permeability assay (BBB penetration potential); format: in vitro ADME; settings: dog, MDCK-MDR1; 5 μM, 120 minutes, pH 7.4

# compound, Papp A→B at 120 min, 5 μM (×10⁻⁶ cm/s)
measured = [
    ("CN(c1nnc(-c2ccc(-c3cnn(CF)c3)cc2O)s1)[C@H]1C[C@@H]2CC[C@@H](N2)[C@H]1F (single isomer, unassigned) [Compound E-10A]", 8.6),
    ("COc1cc(-c2ccc(-c3nnc(N(C)[C@H]4C[C@@H]5CC[C@@H](N5)[C@H]4F)s3)c(O)c2)ncn1 (single isomer, unassigned) [Compound E-5B]", 6.59),
    ("CN(c1nnc(-c2ccc(-c3cn[nH]c3)cc2O)s1)[C@H]1C[C@@H]2CC[C@H]([C@H]1F)N2C (single isomer, unassigned) [Compound E-23A]", 4.65),
    ("COc1cc(-c2ccc(-c3nnc(N(C)[C@@H]4C[C@H]5CC[C@H](N5)[C@@H]4F)s3)c(O)c2)ccn1 (single isomer, unassigned) [Compound E-11A]", 4.19),
    ("CN(c1nnc(-c2cc(F)c(-c3cn[nH]c3)cc2O)s1)[C@H]1C[C@@H]2CC[C@H]([C@H]1F)N2C (single isomer, unassigned) [Compound E-24A]", 5.07),
    ("CN(c1nnc(-c2ccc(-c3cc(=O)n(C)cn3)cc2O)s1)[C@H]1C[C@@H]2CC[C@@H](N2)[C@H]1F (single isomer, unassigned) [Compound E-8B]", 0.66),
    ("COc1cc(-c2ccc(-c3nnc(N(C)[C@@H]4C[C@H]5CC[C@H](N5)[C@@H]4F)s3)c(O)c2)ncn1 (single isomer, unassigned) [Compound E-5A]", 7.8),
    ("CN(c1nnc(-c2ccc(-c3cnn(CF)c3)cc2O)s1)[C@@H]1C[C@H]2CC[C@H](N2)[C@@H]1F (single isomer, unassigned) [Compound E-10B]", 7.85),
    ("COc1cc(-c2ccc(-c3nnc(N(C4CC4)[C@@H]4C[C@H]5CC[C@H](N5)[C@@H]4F)s3)c(O)c2)cc(F)n1 [Compound E-2A]", 2.07),
    ("CN(c1nnc(-c2ccc(-c3cnn(C)c3)cc2O)s1)[C@@H]1C[C@H]2CC[C@H](N2)[C@@H]1F [Compound E-3B]", 11.2),
    ("CN(c1nnc(-c2ccc(-c3cn[nH]c3)cc2O)s1)[C@@H]1C[C@H]2CC[C@H](N2)[C@@H]1F (single isomer, unassigned) [Compound E-7B]", 4.76),
]

---

test system: MDR1; assay: MDCK-MDR1 permeability assay (BBB penetration potential); type: in vitro ADME; details: dog, MDCK-MDR1, pH 7.4, Papp (B-to-A)/Papp (A-to-B); 5 μM, 120 minutes; separated enantiomers, told apart by chiral retention time; read-out: MDCK MDRP1 Efflux Ratio

# compound, efflux ratio at 120 min, 5 μM
records = [
    ("CN(c1nnc(-c2cc(F)c(-c3cnn(C)c3)cc2O)s1)[C@H]1C[C@@H]2CC[C@@H](N2)[C@H]1F (racemic)", 5),
    ("COc1cc(-c2ccc(-c3nnc(N(C4CC4)[C@@H]4C[C@H]5CC[C@H](N5)[C@@H]4F)s3)c(O)c2)cc(F)n1 (racemic)", 5),
    ("CN(c1nnc(-c2ccc(-c3cn[nH]c3)cc2O)s1)[C@H]1C[C@@H]2CC[C@@H](N2)[C@H]1F (racemic)", 12),
    ("CN(c1nnc(-c2ccc(-c3cnn(C)c3)cc2O)s1)[C@@H]1C[C@H]2CCC[C@H](N2)[C@@H]1F (racemic)", 5.5),
    ("CN(c1nnc(-c2ccc(-c3cn[nH]c3)cc2O)s1)[C@H]1C[C@@H]2CC[C@H]([C@H]1F)N2C (racemic) [23A/23B]", 7),
    ("CN(c1nnc(-c2ccc(-c3cc(=O)n(C)cn3)cc2O)s1)[C@@H]1C[C@H]2CC[C@H](N2)[C@@H]1F (racemic)", 21),
]

---

# Lookup of reported EC50 keyed by entry
test system: SMN protein; test: SMN protein assay (MSD) in SMA patient fibroblasts GM03813; assay type: cell-based; conditions: Fibroblast, 48 h, SMA patient fibroblasts GM03813, 48 hours; read-out: SMN2 Potency - Protein: Protein FL EC50 (average)
valueType: EC50

# molecule, valueType, result
records = [
    ("CN(c1nnc(-c2ccc(-c3cnn(C)c3)cc2O)s1)[C@H]1C[C@@H]2CCC[C@@H](N2)[C@H]1F [Compound E-1B]", "EC50", "0.01 to 15 nM"),
    ("COc1cc(-c2ccc(-c3nnc(N(C4CC4)[C@H]4C[C@@H]5CC[C@@H](N5)[C@H]4F)s3)c(O)c2)cc(F)n1 [Compound E-2B]", "EC50", "0.01 to 15 nM"),
    ("CN(c1nnc(-c2ccc(-c3cnn(C)c3)cc2O)s1)[C@H]1C[C@@H]2CC[C@@H](N2)[C@H]1F [Compound E-3A]", "EC50", "16 to 50 nM"),
    ("CN(c1nnc(-c2ccc(-c3cn[nH]c3)cc2O)s1)[C@H]1C[C@@H]2CC[C@H]([C@H]1F)N2C (single isomer, unassigned) [Compound E-23A]", "EC50", "101 to 500 nM"),
    ("CN(c1nnc(-c2cc(F)c(-c3cn[nH]c3)cc2O)s1)[C@H]1C[C@@H]2CC[C@@H](N2)[C@H]1F (single isomer, unassigned) [Compound E-6B]", "EC50", "0.01 to 15 nM"),
]

---

system: MDR1-MDCK cell monolayers; experiment: MDCK-MDR1 permeability assay (BBB penetration potential); type: in vitro ADME; conditions: 5 μM, 120 minutes, pH 7.4
# Lookup of reported MDCK-MDR1: % Recov A-B keyed by entry
valueType: MDCK-MDR1: % Recov A-B (%)

# molecule, unitSpec, result
data = [
    ("CN(c1nnc(-c2ccc(-c3cnn(CF)c3)cc2O)s1)[C@H]1C[C@@H]2CC[C@@H](N2)[C@H]1F (single isomer, unassigned) [Compound E-10A]", "%", 72),
    ("CN(c1nnc(-c2ccc(-c3cnn(C)c3)cc2O)s1)[C@@H]1C[C@H]2CC[C@H](N2)[C@@H]1F", "%", 80),
    ("CN(c1nnc(-c2ccc(-c3cn[nH]c3)cc2O)s1)[C@H]1C[C@@H]2CC[C@H]([C@H]1F)N2C (single isomer, unassigned) [Compound E-23A]", "%", 78),
    ("CN(c1nnc(-c2ccc(-c3ccn(CF)c(=O)c3)cc2O)s1)[C@@H]1C[C@H]2CC[C@H](N2)[C@@H]1F (single isomer, unassigned) [Compound E-15A]", "%", 82),
    ("COc1cc(-c2ccc(-c3nnc(N(C4CC4)[C@@H]4C[C@H]5CC[C@H](N5)[C@@H]4F)s3)c(O)c2)cc(F)n1", "%", 19),
    ("CN(c1nnc(-c2cc(F)c(-c3cnn(C)c3)cc2O)s1)[C@@H]1C[C@H]2CC[C@H](N2)[C@@H]1F (single isomer, unassigned)", "%", 48),
]

---

# Lookup of reported efflux ratio at 120 min, 5 μM keyed by entry
system: MDR1; assay: MDCK-MDR1 permeability assay (BBB penetration potential); type: in vitro ADME; details: dog, MDCK-MDR1, pH 7.4; Papp (B-to-A)/Papp (A-to-B); read-out: MDCK-MDR1: Efflux
valueType: efflux ratio at 120 min, 5 μM

# compound, result
records = [
    ("CN(c1nnc(-c2ccc(-c3cn[nH]c3)cc2O)s1)[C@@H]1C[C@H]2CC[C@H](N2)[C@@H]1F (single isomer, unassigned) [Compound E-7B]", 12),
    ("CN(c1nnc(-c2ccc(-c3cn[nH]c3)cc2O)s1)[C@H]1C[C@@H]2CC[C@@H](N2)[C@H]1F (single isomer, unassigned) [Compound E-7A]", 12),
    ("CN(c1nnc(-c2ccc(-c3cnn(CF)c3)cc2O)s1)[C@@H]1C[C@H]2CC[C@H](N2)[C@@H]1F (single isomer, unassigned) [Compound E-10B]", 6),
    ("CN(c1nnc(-c2ccc(-c3cc(=O)n(C)cn3)cc2O)s1)[C@H]1C[C@@H]2CC[C@@H](N2)[C@H]1F (single isomer, unassigned) [Compound E-8B]", 31),
    ("CN(c1nnc(-c2ccc(-c3ccn(CF)c(=O)c3)cc2O)s1)[C@H]1C[C@@H]2CC[C@@H](N2)[C@H]1F (single isomer, unassigned) [Compound E-15B]", 66),
    ("COc1cc(-c2ccc(-c3nnc(N(C4CC4)[C@H]4C[C@@H]5CC[C@@H](N5)[C@H]4F)s3)c(O)c2)cc(F)n1 [Compound E-2B]", 5),
    ("CN(c1nnc(-c2ccc(-c3ccn(C)c(=O)c3)cc2O)s1)[C@@H]1C[C@H]2CC[C@H](N2)[C@@H]1F (single isomer, unassigned) [Compound E-4A]", 54),
    ("CN(c1nnc(-c2ccc(-c3ccn(C)c(=O)c3)cc2O)s1)[C@H]1C[C@@H]2CC[C@@H](N2)[C@H]1F (single isomer, unassigned) [Compound E-4B]", 40),
    ("CN(c1nnc(-c2ccc(-c3cnn(C)c3)cc2O)s1)[C@@H]1C[C@H]2CCC[C@H](N2)[C@@H]1F [Compound E-1A]", 6),
    ("CN(c1nnc(-c2ccc(-c3cnn(C)c3)cc2O)s1)[C@H]1C[C@@H]2CC[C@@H](N2)[C@H]1F [Compound E-3A]", 3),
    ("CN(c1nnc(-c2cc(F)c(-c3cn[nH]c3)cc2O)s1)[C@H]1C[C@@H]2CC[C@H]([C@H]1F)N2C (single isomer, unassigned) [Compound E-24A]", 6),
    ("CN(c1nnc(-c2ccc(-c3cnn(C)c3)cc2O)s1)[C@H]1C[C@@H]2CC[C@H]([C@H]1F)N2C (single isomer, unassigned) [Compound E-25A]", 4),
    ("CN(c1nnc(-c2cc(F)c(-c3cnn(C)c3)cc2O)s1)[C@H]1C[C@@H]2CC[C@@H](N2)[C@H]1F (single isomer, unassigned) [Compound E-9A]", 6),
    ("COc1cc(-c2ccc(-c3nnc(N(C)[C@H]4C[C@@H]5CC[C@@H](N5)[C@H]4F)s3)c(O)c2)ccn1 (single isomer, unassigned) [Compound E-11B]", 2),
    ("CN(c1nnc(-c2cc(F)c(-c3cnn(C)c3)cc2O)s1)[C@@H]1C[C@H]2CC[C@H](N2)[C@@H]1F (single isomer, unassigned) [Compound E-9B]", 5),
    ("CN(c1nnc(-c2cc(F)c(-c3cn[nH]c3)cc2O)s1)[C@@H]1C[C@H]2CC[C@H](N2)[C@@H]1F (single isomer, unassigned) [Compound E-6A]", 15),
    ("CN(c1nnc(-c2ccc(-c3cnn(C)c3)cc2O)s1)[C@@H]1C[C@H]2CC[C@H](N2)[C@@H]1F [Compound E-3B]", 5),
    ("CN(c1nnc(-c2ccc(-c3cn[nH]c3)cc2O)s1)[C@H]1C[C@@H]2CC[C@H]([C@H]1F)N2C (single isomer, unassigned) [Compound E-23A]", 9),
    ("COc1cc(-c2ccc(-c3nnc(N(C)[C@@H]4C[C@H]5CC[C@H](N5)[C@@H]4F)s3)c(O)c2)ncn1 (single isomer, unassigned) [Compound E-5A]", 2),
    ("CN(c1nnc(-c2cc(F)c(-c3cn[nH]c3)cc2O)s1)[C@@H]1C[C@H]2CC[C@@H]([C@@H]1F)N2C (single isomer, unassigned) [Compound E-24B]", 7),
    ("COc1cc(-c2ccc(-c3nnc(N(C)[C@H]4C[C@@H]5CC[C@@H](N5)[C@H]4F)s3)c(O)c2)ncn1 (single isomer, unassigned) [Compound E-5B]", 2),
    ("CN(c1nnc(-c2ccc(-c3cnn(C)c3)cc2O)s1)[C@H]1C[C@@H]2CCC[C@@H](N2)[C@H]1F [Compound E-1B]", 4),
    ("COc1cc(-c2ccc(-c3nnc(N(C)[C@@H]4C[C@H]5CC[C@H](N5)[C@@H]4F)s3)c(O)c2)ccn1 (single isomer, unassigned) [Compound E-11A]", 2),
]
